measured-target: recombinant EsigGOBP1
procedure-text: Fluorescence competition binding assay (FCBA) with 1-NPN probe
condition-summary: calculated from IC50: Ki = [IC50]/(1 + [1-NPN]/K1-NPN)
endpoint-name: pKi
Give bare numbers, as −log10 of the molar value.

Use these answered entries as a reference point.
molecule: CC1=CCC2CC1C2(C)C (stereo not drawn) [alpha-Pinene]
pKi: 5.91
--
molecule: C=CC(=O)OCCCC [Butyl acrylate]
pKi: 6.05
--
molecule: C=C(C)[C@H]1CC=C(C)CC1 [D-limonene]
pKi: 5.84
--
molecule: CC(C)(O)c1ccccc1 [2-Phenyl-2-propanol]
pKi: 5.56

Batch of 6 molecules: report pKi for each.
1. c1ccc2ccccc2c1 [Naphthalene]
2. CC1=CC[C@H](C(C)C)C=C1 [alpha-Phellandrene]
3. Cc1cc(C)cc(C)c1 [1,3,5-trimethyl-benzen]
4. CCc1ccccc1CC [Benzene, 1,2-diethyl-]
5. C=C1CCC2CC1C2(C)C (stereo not drawn) [β-Pinene]
6. CC12CCC(CC1)C(C)(C)O2 [Eucalyptol]

Result:
1: 5.57; 2: 6.05; 3: 5.34; 4: 6.10; 5: 5.88; 6: 5.90

* * *

Test system: recombinant EsigGOBP1
procedure-text: Fluorescence competition binding assay (FCBA) with 1-NPN probe
Set-up: species or system Endoclita signifer
condition-summary: FCBA, ordered by Kd values
Protocol: N-phenyl-1-naphthylamine (1-NPN) was selected for use as a selectively fluorescent probe to measure the affinity of ligand binding to recombinant EsigGOBP1 [20, 42]. […] Intensity values corresponding to maximum fluorescence emission were plotted against free ligand concentrations to determine dissociation constants. K1-NPN values were calculated by Scatchard plots to linearize curves.
endpoint-name: binding affinities for EsigGOBP1 (in words)

Use these answered entries as a reference point.
compound: CCc1ccccc1CC [Benzene, 1,2-diethyl-]
assay-result: high binding affinities
//
compound: Cc1cc(C)cc(C)c1 [1,3,5-trimethyl-benzen]
assay-result: low binding affinities
//
compound: C=C(C)[C@H]1CC=C(C)CC1 [D-limonene]
assay-result: high binding affinities
//
compound: CC(C)(O)c1ccccc1 [2-Phenyl-2-propanol]
assay-result: low binding affinities
//
compound: C=C1CCC2CC1C2(C)C (stereo not drawn) [β-Pinene]
assay-result: high binding affinities

Batch of 2 compounds: report binding affinities for EsigGOBP1 (in words) for each.
1. C=C1C2CCC(C2)C1(C)C (centres unmarked) [Camphene]
2. C=CC(=O)OCCCC [Butyl acrylate]

Result:
high binding affinities
high binding affinities

Batch of 4 compounds: report binding affinities for EsigGOBP1 (in words) for each.
1. CC12CCC(CC1)C(C)(C)O2 [Eucalyptol]
2. CC1=CC[C@H](C(C)C)C=C1 [alpha-Phellandrene]
3. c1ccc2ccccc2c1 [Naphthalene]
4. CC1=CCC2CC1C2(C)C (stereo not drawn) [alpha-Pinene]

Result:
["high binding affinities", "high binding affinities", "low binding affinities", "high binding affinities"]

* * *

measured-target: recombinant EsigGOBP1
procedure-text: Fluorescence competition binding assay (FCBA) with 1-NPN probe
Design: species or system Endoclita signifer
condition-summary: competitive binding against 1-NPN; read-out: calculated Kd
Answer each item with its documented pKd.
Give bare numbers, as −log10 of the molar value.

Use these answered entries as a reference point.
molecule: C=CC(=O)OCCCC [Butyl acrylate]
pKd: 6.05

molecule: CC(C)(O)c1ccccc1
pKd: 5.56

molecule: CCc1ccccc1CC
pKd: 6.10

molecule: Cc1cc(C)cc(C)c1
pKd: 5.34

molecule: CC1=CCC2CC1C2(C)C (centres unmarked)
pKd: 5.91

Batch of 2 molecules: report pKd for each.
1. C=C1CCC2CC1C2(C)C (centres unmarked)
2. C=C(C)[C@H]1CC=C(C)CC1

Result:
5.88
5.84
